- System: Candida albicans
- experimental-details: Oral and parenteral in vivo efficacy in mice experimentally infected with Candida albicans (survival time)
- Parameters: species or system Mäusen (Stamm HOE: NMRKF; SPF 71)
- condition-context: Oral 8x10 mg/kg; relative to Ketoconazol = 100%
Recorded Überlebenszeit in % (Standardpräp.= 100%) by entry
observed-property: Überlebenszeit in % (Standardpräp.= 100%)

# compound, measurement-target, obs-value
records = [
    ("OC(Cn1cncn1)(c1ccc(Cl)cc1Cl)C1CC1c1ccc(Cl)cc1 (single isomer, unassigned)", "Candida albicans", "121,4%"),
    ("OC(Cn1cncn1)(c1ccc(Cl)cc1)C1CC1c1ccc(Cl)cc1 (single isomer, unassigned)", "Candida albicans", "207,1%"),
    ("OC(Cn1cncn1)(c1ccc(F)cc1)C1CC1c1ccc(Cl)cc1Cl (single isomer, unassigned)", "Candida albicans", "164,3%"),
    ("CC(=O)N1CCN(c2ccc(OCC3COC(Cn4ccnc4)(c4ccc(Cl)cc4Cl)O3)cc2)CC1 (stereo not shown) [Ketoconazol, reference compound]", "Candida albicans", "100,0%"),
]

----------
Recorded d̄ Tage by entry
- Tested on: Candida albicans
- experimental-details: Oral and parenteral in vivo efficacy in mice experimentally infected with Candida albicans (survival time)
- Design: species or system Mäusen (Stamm HOE: NMRKF; SPF 71)
- condition-context: Oral 8x10 mg/kg; mean survival time of 5 mice

# compound, d̄ Tage
records = [
    ("OC(Cn1cncn1)(c1ccc(F)cc1)C1CC1c1ccc(Cl)cc1Cl (single isomer, unassigned) [27 b]", "9,2 Tage"),
    ("OC(Cn1cncn1)(c1ccc(Cl)cc1)C1CC1c1ccc(Cl)cc1 (single isomer, unassigned) [34 b]", "11,6 Tage"),
    ("OC(Cn1cncn1)(c1ccc(Cl)cc1Cl)C1CC1c1ccc(Cl)cc1 (single isomer, unassigned) [29 a]", "6,8 Tage"),
    ("CC(=O)N1CCN(c2ccc(OCC3COC(Cn4ccnc4)(c4ccc(Cl)cc4Cl)O3)cc2)CC1 (stereo not shown) [Ketoconazol, reference compound]", "5,6 Tage"),
]
